Value source: ChEMBL document CHEMBL1932964

Reported pIC50 is given for each of the following compounds.
target: fMet-Leu-Phe receptor (Homo sapiens, UniProt P21462); assay: Antagonist activity at human recombinant FPR1 in expressed in HEK293 cells assessed as inhibition of FMLP-stimulated intracellular calcium mobilisation after 1 hr by FLIPR assay
Sequence (P21462 whole entry): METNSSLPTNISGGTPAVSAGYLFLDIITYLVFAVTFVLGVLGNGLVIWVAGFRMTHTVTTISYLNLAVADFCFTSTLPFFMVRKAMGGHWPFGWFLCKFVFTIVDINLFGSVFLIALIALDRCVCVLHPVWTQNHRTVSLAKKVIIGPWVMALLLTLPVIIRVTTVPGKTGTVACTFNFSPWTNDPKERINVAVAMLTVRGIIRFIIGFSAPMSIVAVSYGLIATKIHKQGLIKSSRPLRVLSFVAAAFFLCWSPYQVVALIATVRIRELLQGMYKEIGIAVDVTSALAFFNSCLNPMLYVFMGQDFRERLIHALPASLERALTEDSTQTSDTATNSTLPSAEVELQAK
Interpret pIC50 as the negative base-10 log of the concentration measured in mol/L.

Look over these answered cases.
Q. Could you share which pIC50 value was measured for CCC(CC)n1nc(C)c(C(=O)N[C@@H](C)C(C)(C)C)c1NS(=O)(=O)c1ccc(C)cc1 ?
A. 6.40

Q. Could you share which pIC50 value was measured for Cc1ccc(S(=O)(=O)Nc2c(C(=O)N[C@@H](C)C(C)(C)C)c(C)nn2C2CCN(CC(F)(F)F)CC2)cc1 ?
A. 5.50

Q. Could you share which pIC50 value was measured for Cc1ccc(S(=O)(=O)Nc2c(C(=O)N[C@@H](C)C(C)(C)C)c(C)nn2C2CCSCC2)cc1 ?
A. 7.40

Q. Could you share which pIC50 value was measured for Cc1nn(C2CCOCC2)c(NS(=O)(=O)c2ccc(C3CC3)cc2)c1C(=O)N[C@@H](C)C(C)(C)C ?
A. 6.80

Q. Could you share which pIC50 value was measured for Cc1ccc(S(=O)(=O)Nc2c(C(=O)N[C@@H](C)C(C)(C)C)c(C)nn2CC(F)(F)F)cc1 ?
A. 5.50

Q. Could you share which pIC50 value was measured for Cc1ccc(S(=O)(=O)Nc2c(C(=O)N[C@@H](C)C(C)(C)C)c(C)nn2C2CCCC2)cc1 ?
A. 7.10

Q. Could you share which pIC50 value was measured for CO[C@H]1CC[C@@H](n2nc(C)c(C(=O)N[C@@H](C)C(C)(C)C)c2NS(=O)(=O)c2ccc(C)cc2)CC1 ?
A. 8.40

Next:
Q. Could you share which pIC50 value was measured for Cc1ccc(S(=O)(=O)Nc2c(C(=O)N[C@@H](C)C(C)(C)C)c(C)nn2C2CCOCC2)cc1 ?
A. 6.50

* * *

experiment: Oral bioavailability in Sprague-Dawley rat at 2 mg/kg; assay type: ADME, organism-based; conditions: in vivo
Readout Name: bioavailability (%)
Form entry: value (%) — number only.

Q. Could you share which bioavailability value was measured for Cc1ccc(S(=O)(=O)Nc2c(C(=O)N[C@@H](C)C(C)(C)C)c(C)nn2-c2ccccc2)cc1 ?
A. 19

Q. Could you share which bioavailability value was measured for Cc1nn(-c2ccc(F)cc2)c(NS(=O)(=O)c2ccc(C#N)cc2)c1C(=O)N[C@@H](C)C(C)(C)C ?
A. 5

Q. Could you share which bioavailability value was measured for CO[C@H]1CC[C@@H](n2nc(C)c(C(=O)N[C@@H](C)C(C)(C)C)c2NS(=O)(=O)c2ccc(C)cc2)CC1 ?
A. 80

Next:
Q. Could you share which bioavailability value was measured for Cc1nn(C2CCOCC2)c(NS(=O)(=O)c2ccc(C3CC3)cc2)c1C(=O)N[C@@H](C)C(C)(C)C ?
A. 83

* * *

test system: Liver; experiment: Intrinsic clearance in rat liver microsomes assessed as media loss of parent compound per million cells
# label = criterion met if CLH < 20 µL/min else criterion not met

Q. Could you please tell me whether CLH recorded for Cc1ccc(S(=O)(=O)Nc2c(C(=O)N[C@@H](C)C(C)(C)C)c(C)nn2C(C)C)cc1 is less than 20 µL/min?
A. criterion met

Q. Could you please tell me whether CLH recorded for Cc1ccc(S(=O)(=O)Nc2c(C(=O)N[C@@H](C)C(C)(C)C)c(C)nn2C2CCCCC2)cc1 is less than 20 µL/min?
A. criterion not met

Q. Could you please tell me whether CLH recorded for Cc1ccc(S(=O)(=O)Nc2c(C(=O)N[C@@H](C)C(C)(C)C)c(C)nn2CC(F)(F)F)cc1 is less than 20 µL/min?
A. criterion met

Q. Could you please tell me whether CLH recorded for Cc1ccc(S(=O)(=O)Nc2c(C(=O)N[C@@H](C)C(C)(C)C)c(C)nn2C2CCCC2)cc1 is less than 20 µL/min?
A. criterion met

Q. Could you please tell me whether CLH recorded for Cc1nn(-c2ccc(F)cc2)c(NS(=O)(=O)c2ccc(C#N)cc2)c1C(=O)N[C@@H](C)C(C)(C)C is less than 20 µL/min?
A. criterion not met

Now let's try a different one.
Q. Could you please tell me whether CLH recorded for Cc1ccc(S(=O)(=O)Nc2c(C(=O)N[C@@H](C)C(C)(C)C)c(C)nn2-c2ccccc2)cc1 is less than 20 µL/min?
A. criterion not met

* * *

test: Distribution coefficient, log D of compound; format: physicochemical; details: octanol/water
Reported logD is given for each of the following compounds.
When you answer, write just the number.

Q. Could you share which logD value was measured for Cc1nn(C2CCOCC2)c(NS(=O)(=O)c2ccc(C3CC3)cc2)c1C(=O)N[C@@H](C)C(C)(C)C ?
A. 1.2

New cases:
Q. Could you share which logD value was measured for CO[C@H]1CC[C@@H](n2nc(C)c(C(=O)N[C@@H](C)C(C)(C)C)c2NS(=O)(=O)c2ccc(C)cc2)CC1 ?
A. 1.3

* * *

Reported pKa is given for each of the following compounds.
test: […] pKa of the compound; format: physicochemical
When you answer, write just the number.

Q. Could you share which pKa value was measured for Cc1nn(-c2ccc(F)cc2)c(NS(=O)(=O)c2ccc(C#N)cc2)c1C(=O)N[C@@H](C)C(C)(C)C ?
A. 3

New cases:
Q. Could you share which pKa value was measured for Cc1ccc(S(=O)(=O)Nc2c(C(=O)N[C@@H](C)C(C)(C)C)c(C)nn2-c2ccccc2)cc1 ?
A. 3.9

* * *

assay: Intrinsic clearance in Sprague-Dawley rat hepatocytes assessed per 10^6 cells measured after 90 mins
Reported log10 hepatocyte CLint at […] is given for each of the following compounds.
Friendly reminder: values = log10 of hepatocyte CLint at […], unit µL/min/1e6 cells.

Look over these answered cases.
Q. Could you share which log10 hepatocyte CLint at […] value was measured for Cc1ccc(S(=O)(=O)Nc2c(C(=O)N[C@@H](C)C(C)(C)C)c(C)nn2C2CCCCC2)cc1 ?
A. 0.90

Q. Could you share which log10 hepatocyte CLint at […] value was measured for Cc1ccc(S(=O)(=O)Nc2c(C(=O)N[C@@H](C)C(C)(C)C)c(C)nn2C2CCCC2)cc1 ?
A. 0.90

Q. Could you share which log10 hepatocyte CLint at […] value was measured for Cc1ccc(S(=O)(=O)Nc2c(C(=O)N[C@@H](C)C(C)(C)C)c(C)nn2C2CCC2)cc1 ?
A. 1.23

Q. Could you share which log10 hepatocyte CLint at […] value was measured for Cc1ccc(S(=O)(=O)Nc2c(C(=O)N[C@@H](C)C(C)(C)C)c(C)nn2C(C)(C)C)cc1 ?
A. 1.72

Q. Could you share which log10 hepatocyte CLint at […] value was measured for Cc1ccc(S(=O)(=O)Nc2c(C(=O)N[C@@H](C)C(C)(C)C)c(C)nn2CC(F)(F)F)cc1 ?
A. 1.87

New cases:
Q. Could you share which log10 hepatocyte CLint at […] value was measured for CO[C@H]1CC[C@@H](n2nc(C)c(C(=O)N[C@@H](C)C(C)(C)C)c2NS(=O)(=O)c2ccc(C)cc2)CC1 ?
A. 0.48

Q. Could you share which log10 hepatocyte CLint at […] value was measured for COCCC(C)n1nc(C)c(C(=O)N[C@@H](C)C(C)(C)C)c1NS(=O)(=O)c1ccc(C)cc1 (stereo not given in full) ?
A. 1.00

* * *

target: Cytochrome P450 2C9 (Homo sapiens)
Sequence (P11712 whole entry): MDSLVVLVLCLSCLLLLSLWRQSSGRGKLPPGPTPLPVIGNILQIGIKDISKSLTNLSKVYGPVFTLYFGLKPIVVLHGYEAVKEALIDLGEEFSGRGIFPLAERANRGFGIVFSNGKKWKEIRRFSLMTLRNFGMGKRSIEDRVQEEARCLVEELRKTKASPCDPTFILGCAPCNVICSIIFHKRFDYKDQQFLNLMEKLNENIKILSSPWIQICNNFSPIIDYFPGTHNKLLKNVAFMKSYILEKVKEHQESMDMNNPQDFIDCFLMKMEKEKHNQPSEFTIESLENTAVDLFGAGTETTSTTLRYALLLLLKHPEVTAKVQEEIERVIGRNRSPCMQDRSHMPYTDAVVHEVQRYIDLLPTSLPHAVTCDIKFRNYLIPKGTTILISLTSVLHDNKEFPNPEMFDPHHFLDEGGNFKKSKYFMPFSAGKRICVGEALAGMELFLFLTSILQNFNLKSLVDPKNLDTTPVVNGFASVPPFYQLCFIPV
Readout Name: IC50

Q. Could you share which IC50 value was measured for CO[C@H]1CC[C@@H](n2nc(C)c(C(=O)N[C@@H](C)C(C)(C)C)c2NS(=O)(=O)c2ccc(C)cc2)CC1 ?
A. > 10 µM

* * *

Reported fraction unbound is given for each of the following compounds.
test: Fraction unbound in Sprague-Dawley rat plasma; assay type: ADME, cell-free; details: Sprague-Dawley
When you answer, write just the number.

Look over these answered cases.
Q. Could you share which fraction unbound value was measured for Cc1nn(-c2ccc(F)cc2)c(NS(=O)(=O)c2ccc(C#N)cc2)c1C(=O)N[C@@H](C)C(C)(C)C ?
A. 0.043

Q. Could you share which fraction unbound value was measured for Cc1ccc(S(=O)(=O)Nc2c(C(=O)N[C@@H](C)C(C)(C)C)c(C)nn2C(C)C)cc1 ?
A. 0.04

New cases:
Q. Could you share which fraction unbound value was measured for Cc1nn(C2CCOCC2)c(NS(=O)(=O)c2ccc(C3CC3)cc2)c1C(=O)N[C@@H](C)C(C)(C)C ?
A. 0.111

Q. Could you share which fraction unbound value was measured for CO[C@H]1CC[C@@H](n2nc(C)c(C(=O)N[C@@H](C)C(C)(C)C)c2NS(=O)(=O)c2ccc(C)cc2)CC1 ?
A. 0.1

* * *

assay: Volume of distribution at steady state in Sprague-Dawley rat at 2 mg/kg, iv; type: ADME, organism-based; parameters: dose 2 mg/kg, route intravenous; conditions: in vivo, read-out: Vdss
Readout Name: Vd (L/kg)
Form entry: value (L/kg) — number only.

Look over these answered cases.
Q. Could you share which Vd value was measured for CO[C@H]1CC[C@@H](n2nc(C)c(C(=O)N[C@@H](C)C(C)(C)C)c2NS(=O)(=O)c2ccc(C)cc2)CC1 ?
A. 1.2

Q. Could you share which Vd value was measured for Cc1ccc(S(=O)(=O)Nc2c(C(=O)N[C@@H](C)C(C)(C)C)c(C)nn2-c2ccccc2)cc1 ?
A. 0.45

New cases:
Q. Could you share which Vd value was measured for Cc1nn(-c2ccc(F)cc2)c(NS(=O)(=O)c2ccc(C#N)cc2)c1C(=O)N[C@@H](C)C(C)(C)C ?
A. 0.23

Q. Could you share which Vd value was measured for Cc1nn(C2CCOCC2)c(NS(=O)(=O)c2ccc(C3CC3)cc2)c1C(=O)N[C@@H](C)C(C)(C)C ?
A. 0.5
